test system: Male Sprague-Dawley rats; assay: Spontaneous locomotor activity in rats (sedative properties); type: in vivo, rat; conditions: 1 mg/kg i.p.; 45 minutes after administration

Compound: O=C(CCCN1CCC(O)(c2ccc(Cl)cc2)CC1)c1ccc(F)cc1 [Haloperidol, reference compound]
Assayed Target: Male Sprague-Dawley rats
Inactivity Duration, s: 637.2
--
Compound: COc1cc2c(cc1OC)[C@H]1C[C@@H](O)[C@@H](CC(C)C)CN1CC2 (single isomer, unassigned) [Isomer C, 3,11b-cis-dihydrotetrabenazine]
Assayed Target: Male Sprague-Dawley rats
Inactivity Duration, s: 324.6
--
Compound: COc1cc2c(cc1OC)C1CC(=O)C(CC(C)C)CN1CC2 (racemic)
Assayed Target: Male Sprague-Dawley rats
Inactivity Duration, s: 456.5
--
Compound: COc1cc2c(cc1OC)[C@H]1C[C@H](O)[C@@H](CC(C)C)CN1CC2 (single isomer, unassigned) [Isomer B, 3,11b-cis-dihydrotetrabenazine]
Assayed Target: Male Sprague-Dawley rats
Inactivity Duration, s: 334.0
